System: MOLM-13
Procedure text: Cell proliferation inhibition (CellTiter-Glo), MOLM-13
Format: cell-based
Conditions used: MOLM-13 cells, 168 h
Assay readout: GI50 (nM)
Your answer should be a plain number; it is taken to be in nM.

* CCN(C(=O)c1cc(F)ccc1Oc1nncnc1N1CC2(CCN(C[C@H]3CC[C@]4(CC3)CC(C(C)(C)O)C(=O)N4)CC2)C1)C(C)C (single isomer, unassigned) | 56.9
* CC(C)N(C(=O)c1cc(F)ccc1Oc1nncnc1N1CC2(CCN(CC3CCC4(CC3)CC3(CC3)C(=O)N4)CC2)C1)C(C)C (single isomer, unassigned) [Example 44-1] | 111

# input for lookup
If you can, please state the reported GI50 value of [2H]C([2H])([2H])C1C[C@]2(CC[C@@H](CN3CCC4(CC3)CN(c3ncnnc3Oc3ccc(F)cc3C(=O)N(C(C)C)C(C)C)C4)CC2)NC1=O (single isomer, unassigned) .
137

----------
Procedure text: Pharmacokinetics test in mouse
Format: in vivo, ICR mice
Conditions used: mice, p.o. 10 mg/kg; 1 mg/kg for intravenous injection
Experimental: Test Example 4. In Vivo Pharmacokinetic Study […] Research methods: An appropriate amount of compound was weighed and prepared into a transparent clear solution of a certain concentration using 0.9% sodium chloride injection and 1.5 equivalents of 1M HCl aqueous solution based on the molar number of the compound. […] Plasma samples at each time point were detected by LC-MS/MS, and the plasma concentration of the compound was determined by the standard curve correction method. […]
Entries annotated with measured F, %
Provide only the numeric value, understood in %.

Solved cases (3 shown):
- COCC1(COC)C[C@]2(CC[C@@H](CN3CCC4(CC3)CN(c3ncnnc3Oc3ccc(F)cc3C(=O)N(C(C)C)C(C)C)C4)CC2)NC1=O: 84
- CC(C)N(C(=O)c1cc(F)ccc1Oc1cncnc1N1CC2(CCN(CC3CC4CCC3CC43CCC(=O)N3)CC2)C1)C(C)C (single isomer, unassigned): 72
- CCN(C(=O)c1cc(F)ccc1Oc1cncnc1N1CC2(CCN(C[C@H]3CC[C@@]4(CCC(=O)N4)CC3)CC2)C1)C(C)C: 79

Which F, % is listed for COC[C@@H]1C[C@]2(CC[C@@H](CN3CCC4(CC3)CN(c3ncnnc3Oc3ccc(F)cc3C(=O)N(C(C)C)C(C)C)C4)CC2)NC1=O ?
55

Any idea what its F, % is? The compound is COCC1(COC)C[C@]2(CC[C@@H](CN3CCC4(CC3)CN(c3ncncc3Oc3ccc(F)cc3C(=O)N(C(C)C)C(C)C)C4)CC2)NC1=O
75

----------
Catalogue of half-life at 1 μM values
Procedure text: Stability in dog liver microsomes
Type: in vitro ADME
Conditions used: dog, liver microsomes, pH 7.4, Dog; 0.5 mg/mL microsomal protein, 1.00 μM compound, NADPH; read-out: Half life T1/2, dog liver microsomes

- COC[C@H]1C[C@]2(CC[C@@H](CN3CCC4(CC3)CN(c3ncnnc3Oc3ccc(F)cc3C(=O)N(C(C)C)C(C)C)C4)CC2)NC1=O: > 2 h
- CCN(C(=O)c1cc(F)ccc1Oc1nncnc1N1CC2(CCN(C[C@H]3CC[C@]4(CC3)CC(COC)(COC)C(=O)N4)CC2)C1)C(C)C: > 2 h
- CC(C)N(C(=O)c1cc(F)ccc1Oc1nncnc1N1CC2(CCN(C[C@H]3CC[C@@]4(CCC(=O)N4)CC3)CC2)C1)C(C)C: 1.56 h

Which half-life at 1 μM is reported for this compound? CCN(C(=O)c1cc(F)ccc1Oc1nncnc1N1CC2(CCN(CC3CCC4(CC3)CN(C)C(=O)N4)CC2)C1)C(C)C (single isomer, unassigned)
> 2 h

----------
Procedure text: Stability in dog liver microsomes
Assay type: in vitro ADME
Conditions used: dog, liver microsomes, pH 7.4, Dog; 0.5 mg/mL microsomal protein, 1.00 μM compound, NADPH; read-out: Half life T1/2, dog liver microsomes
# half-life at 1 μM per record follows
Please state the figure in h; there is no need to write the unit.

• CCN(C(=O)c1cc(F)ccc1Oc1nncnc1N1CC2(CCN(C[C@H]3CC[C@@]4(CCC(=O)N4)CC3)CC2)C1)C(C)C = 1
• CCN(C(=O)c1cc(F)ccc1Oc1nncnc1N1CC2(CCN(C[C@H]3CC[C@]4(CC3)CC3(CCOCC3)C(=O)N4)CC2)C1)C(C)C = 1.53

Next up:
What half-life at 1 μM value was documented for this compound, CC(C)N(C(=O)c1cc(F)ccc1Oc1nncnc1N1CC2(CCN(C[C@H]3CC[C@]4(CC3)CC(C(C)(C)O)C(=O)N4)CC2)C1)C(C)C (single isomer, unassigned) ?
1.17
